test system: MDA-MB-435 melanoma; assay: NCI-60 one-dose screen, 48 h; details: 10 µM unless noted
This is part of a sample that, as a whole, favours compounds with a hit. Of some 83,000 tested, about 20% had one in any assay. Active and inactive are the calls of the source. How the source made its calls: active means growth percent below 10; inactive means the rest.
Answer with one of the outcomes active, inactive

> print(dat)
                                   molecule  discrete.label
1  COc1ccc(C(=O)c2cc3c(N)c(C(=O)Nc4cccc5ccccc45)sc3nc2C)cc1          active
2  COc1ccc(/C=N/C2=C(C#N)C(c3ccccc3[N+](=O)[O-])c3ccc4ccccc4c3O2)cc1 (centres undefined)        inactive
3  O=C(/C=C\c1ccc(OCCCCCC[P+](c2ccccc2)(c2ccccc2)c2ccccc2)cc1)c1ccc2c(c1)OCCO2          active
4  COc1ccccc1/C=C1\Oc2cc(OCCCN3CCCC3)ccc2C1=O        inactive
5  COC(=O)C1NC(=S)N(c2ccc(Cl)cc2)C1/C=C/c1ccccc1 (centres undefined)        inactive

For the next question, use this molecule.
Qu. Call for entry `CCCCCCCC(=O)Nc1nc2[nH]c(CN3CCN(Cc4cccc(I)c4)CC3)c(CN3CCN(Cc4cccc(I)c4)CC3)c2c(=O)[nH]1` :
Ans. active

The reported measurements were obtained from PubChem BioAssay (NCI).
